Where do these numbers come from? They come from PubChem BioAssay AID1159580.

# protocol-notes: chemical genetic growth profiling, strain panel (AID 1159580);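 further: tested at 20 µM; growth read once vehicle control cultures reached saturation at 30 °C; lower values mean less growth of the strain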
# protocol-conditions: S. cerevisiae deletion strains, growth OD, locus YCL069W, strain vba3, stronger effect = lower value
The campaign covered roughly 5,500 compounds. About 2,000 (36%) were called active. Not shown: some 18% with an inconclusive outcome. This is one part of the list.
# label = condition met if normalized growth < 1 else condition not met

Recorded results for 6 compounds are shown here.
[
  {
    "compound": "COc1ccc(/C=C/C(=O)c2cc(O)ccc2O)cc1",
    "answer-label": "condition met"
  },
  {
    "compound": "CC1(C)CC2C1CCC1(C)OC1CCC2(C)O (stereo unspecified)",
    "answer-label": "condition not met"
  },
  {
    "compound": "c1cc2c(cc1[C@H]1OC[C@H]3[C@@H]1CO[C@H]3c1ccc3c(c1)OCO3)OCO2",
    "answer-label": "condition met"
  },
  {
    "compound": "CC1(C)CC2C1CCC1(C)OC2(C)CCC1O (stereo unspecified)",
    "answer-label": "condition not met"
  },
  {
    "compound": "CN(Cc1cc(Br)cc(Br)c1N)C1CCCCC1",
    "answer-label": "condition not met"
  },
  {
    "compound": "C[C@@H]1C[C@@H]([C@H](O)CC2CC(=O)NC(=O)C2)C(=O)[C@@H](C)C1",
    "answer-label": "condition met"
  }
]

Given C=CCc1cc(OC)c2c(c1OC)OCO2 , is recorded normalized growth strictly lower than 1?
condition met

Given COc1ccc(/C=C/C(=O)O)cc1OC , is recorded normalized growth strictly lower than 1?
condition met

Given O=C(O)CCCCC1SCC2NC(=O)NC21 (stereo unspecified) , is recorded normalized growth strictly lower than 1?
condition met
